Target: UniProtKB P55055
Sequence (P55055 1-460): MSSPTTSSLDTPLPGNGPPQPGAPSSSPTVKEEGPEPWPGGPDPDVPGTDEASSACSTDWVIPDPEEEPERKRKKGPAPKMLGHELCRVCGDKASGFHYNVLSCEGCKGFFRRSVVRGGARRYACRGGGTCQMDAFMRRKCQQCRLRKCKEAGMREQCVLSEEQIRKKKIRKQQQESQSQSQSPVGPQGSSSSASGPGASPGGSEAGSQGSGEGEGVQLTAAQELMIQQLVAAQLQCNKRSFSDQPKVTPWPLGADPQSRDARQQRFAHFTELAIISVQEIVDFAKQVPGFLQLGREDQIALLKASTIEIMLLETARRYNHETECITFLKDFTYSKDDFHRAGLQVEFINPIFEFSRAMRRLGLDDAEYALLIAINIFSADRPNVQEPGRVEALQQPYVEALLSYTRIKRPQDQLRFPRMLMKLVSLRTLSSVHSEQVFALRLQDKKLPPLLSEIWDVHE
Assay: LXR Gal4 reporter transient transfection assay (mammalian two-hybrid, HEK293), LXRβ
Assay type: cell-based
Parameters: LXRβ (amino acids 156-461); expressed in transfected cells; host or cells: HEK293
Conditions: full length (FL) LXRβ, HEK293; read-out: FL-M2H Gal4β
Experimental: LXRα and LXRβ activity status was determined via detection of interaction with coactivator and corepressor proteins in mammalian two-hybrid experiments (M2H). […] As cofactors, domains of either the steroid receptor coactivator 1 (SRC1; amino acids 552-887; SEQ ID NO:5) or of the corepressor NCoR (amino acids 1906-2312; NP006302; SEQ ID NO:6) were expressed as fusions to the DNA binding domain of the yeast transcription factor GAL4 (from pCMV-BD; Stratagene). […]
Value type: EC50

These solved cases illustrate the format of a correct answer.
>  <Compound>
Cc1ccc(S(=O)(=O)n2c(-c3cccc(N4CC(C(=O)O)C4)c3)c(-c3ccoc3C#N)c3cc(F)ccc32)cc1

>  <EC50>
< 100 nM

$$$$
>  <Compound>
Cc1ccc(S(=O)(=O)n2c(-c3cccc(N4CC[C@@H](C(=O)O)C[C@H]4C)c3)c(-c3ccsc3C#N)c3cc(F)ccc32)cc1

>  <EC50>
< 100 nM

$$$$
>  <Compound>
Cc1ccc(S(=O)(=O)n2c(-c3cccc(N4CC(C(=O)O)C4)c3)c(-c3ccsc3C(=O)N(C)C)c3cc(F)ccc32)cc1

>  <EC50>
1000 to 10000 nM

$$$$
>  <Compound>
Cc1ccc(S(=O)(=O)n2c(-c3cccc(-c4cccc(S(C)(=O)=Nc5nnn[nH]5)c4)c3)c(-c3ccsc3C#N)c3cc(F)ccc32)cc1 (stereo not shown)

>  <EC50>
100 to 1000 nM

$$$$
>  <Compound>
CC1CCN(S(=O)(=O)n2c(-c3cccc(N4CC(C(=O)O)C4)c3)c(-c3ccsc3C#N)c3cc(F)ccc32)CC1

>  <EC50>
100 to 1000 nM

$$$$
>  <Compound>
N#Cc1cc(C(=O)O)ccc1-c1cccc(-c2c(-c3ccccc3C#N)c3cc(F)ccc3n2S(=O)(=O)c2ccc(C(F)F)cc2)c1

>  <EC50>
< 100 nM

$$$$

Attention now shifts to the item below.
Query string: State its EC50 for this compound: "N#Cc1cccc(C#N)c1-c1c(-c2cccc(-c3ccc(C(=O)O)cc3F)c2)n(S(=O)(=O)c2ccc(C(F)F)cc2)c2ccc(F)cc12"
Result string: < 100 nM
